Attribution: the supplement of paper PMC10065799

Attribute: phosphorylation enrichment
system: c-Abl (mouse); test: phosphorylation enrichment, bacterial display (enrichment ratio); higher = better substrate or ligand; peptides without Tyr show the background;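 also: 11-residue human phosphosite peptides and single-mutation variants displayed on the E. coli surface, counted by deep sequencing, each peptide's frequency after selection divided by its frequency in the unselected input library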;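 also: frequency after pTyr selection over input frequency; kinase dosed for 20-30% of maximal phosphorylation in three min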

Take a look at these entries with their results.
seq_text: FMRGMYFRMKD [PLA2G6_Y541_YF]
subject_of_test: c-Abl (mouse)
phosphorylation enrichment: 0.645
//
seq_text: VGTTAYVAPEA [IRAK4_Y354_M355V]
subject_of_test: c-Abl (mouse)
phosphorylation enrichment: 0.653
//
seq_text: DENWFYTRPAS [RPS19_Y54_A57P]
subject_of_test: c-Abl (mouse)
phosphorylation enrichment: 0.673
//
seq_text: VHNLDYFKQTT [FGFR3_Y647_K650Q_YF]
subject_of_test: c-Abl (mouse)
phosphorylation enrichment: 0.602
//
seq_text: CTTIHYNFMFN [TP53_Y234_C238F_YF]
subject_of_test: c-Abl (mouse)
phosphorylation enrichment: 1.04

In plain terms, HSDFQYSQRSQ [PKP2_Y168_YF] has a documented phosphorylation enrichment of 0.942
